Where do the numbers come from? From PubChem BioAssay (EPA / NIEHS).

protocol: TOX21_p53_BLA_p2_viability: Viability Assessment in the Tox21 HCT-116 p53 Agonism Beta-lactamase Assay, Phase 2 (AID 2283591);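 further: compound exposure lasted 16 h at 37 °C; actives lower the ATP signal meaning cytotoxicity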
Inconclusive results are not listed. The source made the active and inactive calls. How the source made its calls: active means hit-call score of the fitted dose curve at least 0.9, where 1 is the maximum; inconclusive means response in the unintended direction; inactive means score below 0.9.
Classes used: active, inactive

INSERT INTO assay_data (molecule, class_name) VALUES
  ('CCCCCCCCCCCCCCCCCC(=O)[O][Al]', 'inactive'),
  ('O=C(CCBr)N1CCN(C(=O)CCBr)CC1', 'inactive'),
  ('CC(C)CN(C[C@@H](OP(=O)(O)O)[C@H](Cc1ccccc1)NC(=O)O[C@H]1CCOC1)S(=O)(=O)c1ccc(N)cc1', 'inactive'),
  ('O[C@@H](c1cc(C(F)(F)F)nc2c(C(F)(F)F)cccc12)[C@H]1CCCCN1', 'active'),
  ('COc1ccc2[nH]c(S(=O)Cc3ncc(C)c(OC)c3C)nc2n1 (configuration not stated)', 'inactive'),
  ('COc1cc(C(=O)NCc2ccc(OCCN(C)C)cc2)cc(OC)c1OC', 'inactive'),
  ('COc1cc2c(cc1OC)C(=O)C(CC1CCN(Cc3ccccc3)CC1)C2 (configuration not stated)', 'inactive'),
  ('COc1ccc(Cl)cc1C(=O)NCCc1ccc(S(=O)(=O)NC(=O)NC2CCCCC2)cc1', 'inactive'),
  ('CC/C=C/CCO', 'inactive'),
  ('CC(C(=O)O)c1ccc2c(c1)[nH]c1ccc(Cl)cc12 (configuration not stated)', 'inactive'),
  ('NCc1ccccc1Sc1ccccc1CO', 'inactive'),
  ('CCN(CC)CCOc1ccc(Cc2ccccc2)cc1', 'active'),
  ('CCC(C)O (configuration not stated)', 'inactive'),
  ('CCCCCCCCCCCCCCCCCC[N+](C)(C)C', 'active'),
  ('CN1[C@@H]2CC[C@H]1CC(NC(=O)n1c(=O)[nH]c3ccccc31)C2 (some centres not stated)', 'inactive'),
  ('C=C1[C@@H]2CC[C@@H](C2)C1(C)C', 'inactive'),
  ('O=C(CC(C(=O)OC1CCCCC1)S(=O)(=O)O)OC1CCCCC1 (configuration not stated)', 'inactive');

---

protocol: TOX21_p53_BLA_p3_viability: Viability Assessment in the Tox21 HCT-116 p53 Agonism Beta-lactamase Assay, Phase 3 (AID 2283593);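 further: cells exposed to compound for 16 h before reading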
Inconclusive results are not listed. Calls of active or inactive are those of the source. Rule for the calls: active = hit-call score of the fitted dose curve at least 0.9, where 1 is the maximum; inconclusive = response in the unintended direction; inactive = score below 0.9.
Outcome codes: yes (1) for active, no (0) for inactive

INSERT INTO measurements (molecule, class_name) VALUES
  ('CC(C)OC(=O)C(C)N(C(=O)c1ccccc1)c1ccc(F)c(Cl)c1 (stereo not drawn)', 'no (0)'),
  ('CCn1cc(C(=O)O)c(=O)c2cc(F)c(N3CCNCC3)nc21', 'no (0)'),
  ('Clc1cc(Cl)c(Cl)nc1Cl', 'no (0)'),
  ('Cc1ccc2c(Br)cc(Br)c(O)c2n1', 'no (0)'),
  ('CCCCN(CCCC)C(=S)SSC(=S)N(CCCC)CCCC', 'no (0)'),
  ('CC[C@@H](C)[C@H](N)C(=O)O', 'no (0)'),
  ('c1ccc(-c2ccc(C(c3ccccc3)n3ccnc3)cc2)cc1 (stereo not drawn)', 'no (0)'),
  ('CCCCCCCCCCCCCCNCCO', 'no (0)'),
  ('Cc1ncc(CSSCc2cnc(C)c(O)c2CO)c(CO)c1O', 'no (0)'),
  ('CCN(CC)c1ccc(C(=C2C=CC(=[N+](CC)CC)C=C2)c2ccccc2)cc1', 'yes (1)'),
  ('N=C(N)c1ccc2cc(OC(=O)c3ccc(N=C(N)N)cc3)ccc2c1', 'no (0)'),
  ('O=C1Nc2ccccc2C1=O', 'no (0)'),
  ('O=C(NCC1CCCCN1)c1cc(OCC(F)(F)F)ccc1OCC(F)(F)F (stereo not drawn)', 'no (0)'),
  ('CC1=C(/C=C/C(C)=C/C=C/C(C)=C/C(=O)Oc2c(C)c(C)c3c(c2C)CC[C@@](C)(CCC[C@H](C)CCC[C@H](C)CCCC(C)C)O3)C(C)(C)CCC1', 'yes (1)'),
  ('COc1cc(-c2ccc(=O)[nH]n2)ccc1OC(F)F', 'no (0)'),
  ('O=C(O)/C=C/c1ccc(Cn2ccnc2)cc1', 'no (0)'),
  ('CCC(C)(C)c1ccc(CC(C)CN2C[C@@H](C)O[C@@H](C)C2)cc1 (stereo partly drawn)', 'no (0)'),
  ('CC(=O)Oc1ccc(C(c2ccc(OC(C)=O)cc2)c2ccccn2)cc1', 'no (0)');

---

protocol: TOX21_p53_BLA_p3_viability: Viability Assessment in the Tox21 HCT-116 p53 Agonism Beta-lactamase Assay, Phase 3 (AID 2283593);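 further: cells exposed to compound for 16 h before reading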
Results filed as inconclusive are left out. The source made the active and inactive calls. Rule for the calls: active = hit-call score of the fitted dose curve at least 0.9, where 1 is the maximum; inconclusive = response in the unintended direction; inactive = score below 0.9.
Possible outcomes: active, inactive

INSERT INTO measurements (chemical_smiles, class_name) VALUES
  ('c1ccc(CNc2ncnc3nc[nH]c23)cc1', 'inactive'),
  ('O=C(O)c1cc(N=Nc2ccc([N+](=O)[O-])cc2)ccc1O', 'active'),
  ('Cc1cccc(C)c1NC(=O)c1cc(S(N)(=O)=O)c(Cl)cc1O', 'inactive'),
  ('CC(C)C[C@H](NC(=O)[C@H](CCc1ccccc1)NC(=O)CN1CCOCC1)C(=O)N[C@@H](Cc1ccccc1)C(=O)N[C@@H](CC(C)C)C(=O)[C@@]1(C)CO1', 'active');

---

protocol: TOX21_p53_BLA_p4_viability: Viability Assessment in the Tox21 HCT-116 p53 Agonism Beta-lactamase Assay, Phase 4 (AID 2283597);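 further: hits lower the luminescence signal meaning cytotoxicity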
Excerpt: TOX21_p53_BLA_p4 is a cell-based, single-readout assay that uses HCT116, a human intestinal cell line, […] in a 1536-well plate.TOX21_p53_BLA_p4_viability is an assay readout measuring cellular ATP content and detected with CellTiter-Glo Luciferase-coupled ATP quantitation.TOX21_p53_BLA_p4_viability used a type of viability reporter where loss-of-signal activity can be used to understand changes in the cell viability. […]
Results filed as inconclusive are left out. Calls of active or inactive are those of the source. How the source made its calls: active means hit-call score of the fitted dose curve at least 0.9, where 1 is the maximum; inconclusive means response in the unintended direction; inactive means score below 0.9.
Labels: yes (1) (active), no (0) (inactive)

INSERT INTO assay_data (compound, class_name) VALUES
  ('COc1cc2nc(N3CCN(C(=O)C4CCCO4)CC3)nc(N)c2cc1OC (stereo unspecified)', 'no (0)'),
  ('CCN(CC)CCOc1ccc(C(O)(Cc2ccc(Cl)cc2)c2ccc(C)cc2)cc1 (stereo unspecified)', 'yes (1)'),
  ('CCCCCCCCNC(C)C(O)c1ccc(SC(C)C)cc1 (stereo unspecified)', 'yes (1)'),
  ('Cc1c(O)cccc1C(=O)N[C@@H](CSc1ccccc1)[C@H](O)CN1C[C@H]2CCCC[C@H]2C[C@H]1C(=O)NC(C)(C)C', 'yes (1)'),
  ('CC(=O)[C@]1(O)Cc2c(O)c3c(c(O)c2[C@@H](O[C@H]2C[C@H](N)[C@H](O)[C@H](C)O2)C1)C(=O)c1c(O)cccc1C3=O', 'no (0)'),
  ('CCOC(=O)CC(=O)c1cc(F)c(Cl)nc1Cl', 'no (0)'),
  ('CC(C(=O)O)c1ccc(-c2ccccc2)c(F)c1 (stereo unspecified)', 'no (0)'),
  ('C#C[C@]1(OC(C)=O)CC[C@H]2[C@@H]3CCC4=C[C@@H](OC(C)=O)CC[C@@H]4[C@H]3CC[C@@]21C', 'no (0)'),
  ('CC/C=C/CCO', 'no (0)'),
  ('ClC(Cl)(Cl)c1ccc(C(Cl)(Cl)Cl)cc1', 'no (0)'),
  ('CCN(CC)CCOc1ccc(Cc2ccccc2)cc1', 'yes (1)'),
  ('O=C(O)C(=O)Nc1cccc(-c2nn[nH]n2)c1', 'no (0)'),
  ('C1CC(COCC2CO2)CCC1COCC1CO1 (stereo unspecified)', 'no (0)'),
  ('CCC1OC(=O)C[C@@H](O)[C@H](C)[C@@H](O[C@@H]2O[C@H](C)C[C@H](N(C)C)[C@H]2O)[C@@H](CC=O)C[C@@H](C)C(=O)/C=C/[C@]2(C)OC2C1C (stereo partly specified)', 'no (0)'),
  ('NC(=O)c1cccc([N+](=O)[O-])c1', 'no (0)'),
  ('Cc1c(C(=O)NN2CCCCC2)nn(-c2ccc(Cl)cc2Cl)c1-c1ccc(Cl)cc1', 'yes (1)'),
  ('CN(C)CCOC1=Cc2ccccc2Sc2ccc(Cl)cc21', 'yes (1)'),
  ('COc1cccc2c1C(=O)c1c(O)c3c(c(O)c1C2=O)C[C@@](O)(C(=O)CO)C[C@@H]3O[C@H]1C[C@H](N)[C@H](O[C@@H]2CCCCO2)[C@H](C)O1', 'yes (1)'),
  ('CC(C)COC(=O)c1ccc(O)cc1', 'no (0)'),
  ('CN1C(CCl)Nc2cc(Cl)c(S(N)(=O)=O)cc2S1(=O)=O (stereo unspecified)', 'no (0)'),
  ('CCCCCCCC(=O)CC[C@@H]1[C@@H](C/C=C\CCCC(=O)OC(C)C)[C@@H](O)C[C@H]1O', 'yes (1)'),
  ('O=C(CCCN1CCN2CCCC2C1)c1ccc(F)cc1 (stereo unspecified)', 'no (0)'),
  ('CCCCC(CC)CN (stereo unspecified)', 'no (0)'),
  ('O=C(O)CN1C(=O)c2cccc3cccc(c23)C1=O', 'no (0)'),
  ('COc1ccc(S(=O)(=O)Nc2nnc(CC(C)C)s2)cc1', 'no (0)'),
  ('O=S(=O)(O)CCO', 'no (0)'),
  ('Cc1ccsc1C(=CCCN1CCC[C@@H](C(=O)O)C1)c1sccc1C', 'no (0)'),
  ('COc1cc2nc(N3CCN(C(=O)C4COc5ccccc5O4)CC3)nc(N)c2cc1OC (stereo unspecified)', 'no (0)'),
  ('Cc1ccc([N+](=O)[O-])cc1Cl', 'no (0)'),
  ('CS(=O)(=O)c1ccc([C@@H](O)[C@@H](CO)NC(=O)C(Cl)Cl)cc1', 'no (0)'),
  ('CN1CCC(CN2c3ccccc3Sc3ccccc32)C1 (stereo unspecified)', 'no (0)');
